Assay Protocol: in vitro
Conditions Used: human
pIC50: −log10 of the molar value.
Value Kind: pIC50

[[record]]
compound = "C[C@H]1[C@@H](OCC(=O)N2C[C@@H]3CCC[C@@H]3[C@H]2C(=O)O)O[C@@H]2O[C@@]3(C)CC[C@H]4[C@H](C)CC[C@@H]1[C@@]24OO3 [Compound 191]"
sign = "<"
data_value = 4.70

[[record]]
compound = "C[C@H]1[C@@H](O[C@H]2CC[C@@H](C(=O)N[C@H](C(=O)O)C(C)(C)C)CC2)O[C@@H]2O[C@@]3(C)CC[C@H]4[C@H](C)CC[C@@H]1[C@@]24OO3 [Compound 229]"
sign = "<"
data_value = 4.70

[[record]]
compound = "C[C@H]1[C@@H](OCc2c(F)cc(C(=O)N[C@H]3CC[C@@H](C(=O)O)C3)cc2F)O[C@@H]2O[C@@]3(C)CC[C@H]4[C@H](C)CC[C@@H]1[C@@]24OO3 [Compound 309]"
sign = "="
data_value = 5.76

[[record]]
compound = "C[C@H]1[C@@H](OCc2ccc(-c3nnc(CC(=O)O)o3)cc2)O[C@@H]2O[C@@]3(C)CC[C@H]4[C@H](C)CC[C@@H]1[C@@]24OO3 [Compound 304]"
sign = "="
data_value = 7.52

[[record]]
compound = "C[C@H]1[C@@H](Oc2ccc(C(=O)N[C@H](C(=O)O)C3CCC3)cc2)O[C@@H]2O[C@@]3(C)CC[C@H]4[C@H](C)CC[C@@H]1[C@@]24OO3 [Compound 251]"
sign = "="
data_value = 5.82

